Target: Serine/threonine-protein kinase 33 (Homo sapiens)
Assay: STK33 kinase inhibitors, dose response, biochemical, luminescence, cell-free, retest (AID 2821)
REPORTED_PROPERTY: pEC50
Please report pEC50 as the negative decimal logarithm of the molar concentration, giving only the number.

COc1ccccc1NC(=O)Nc1ncccc1C | 5.10
Nc1ccc(N)c2c(O)c3ccccc3c(O)c12 | 4.62

# compound NS(=O)(=O)c1ccc2c(c1)C(N=O)c1cc(S(N)(=O)=O)ccc1-2 ; its pEC50 = 5.31

Given item CC(C)(C)c1[nH]nc2c1C(=O)c1ccccc1-2 , the value recorded as its pEC50 is 4.60

====

Target: Serine/threonine-protein kinase 33 (Homo sapiens, UniProt Q9BYT3)
Sequence (Q9BYT3 whole entry): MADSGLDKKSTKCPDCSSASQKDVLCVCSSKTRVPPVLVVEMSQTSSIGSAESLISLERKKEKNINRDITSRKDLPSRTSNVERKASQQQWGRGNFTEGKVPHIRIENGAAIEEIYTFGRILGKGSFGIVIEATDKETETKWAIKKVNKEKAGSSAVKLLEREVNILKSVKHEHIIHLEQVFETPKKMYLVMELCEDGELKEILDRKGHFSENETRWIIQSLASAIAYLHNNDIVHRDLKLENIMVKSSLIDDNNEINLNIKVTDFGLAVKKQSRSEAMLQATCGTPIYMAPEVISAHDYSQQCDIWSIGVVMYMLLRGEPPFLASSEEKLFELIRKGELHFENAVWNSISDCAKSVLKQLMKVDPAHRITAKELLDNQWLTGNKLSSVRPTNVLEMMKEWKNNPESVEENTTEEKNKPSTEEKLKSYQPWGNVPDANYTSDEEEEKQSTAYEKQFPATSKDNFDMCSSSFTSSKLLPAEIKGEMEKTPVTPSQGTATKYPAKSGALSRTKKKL
Assay: STK33 kinase inhibitors, dose response, biochemical, luminescence, cell-free, retest (AID 2821)
Recorded EC50 values for a group of compounds are listed next.
Numeric answer only, unit µM assumed.

Noted for CCCN1C=CC(=C2C(=O)c3ccccc3C2=O)C=C1 : its EC50 reads 8.93

Recorded result, Cc1ccc2c(c1)/C(=C/c1ccco1)C(=O)N2 [SMR000312107] , EC50: 38.9

The compound identified as O=c1c(O)c(-c2ccc(O)c(O)c2)oc2cc(O)cc(O)c12 registered its EC50 at 12.4

What the record says about Nc1c(O)ccc2c1C(=O)c1ccccc1C2=O [1-amino-2-hydroxy-9,10-anthraquinone] : EC50 is 34.7

Reported EC50 ( COc1cc(C=C2SC(Nc3ccccc3OC)=NC2=O)ccc1O ) = 4

// EC50 value for O=c1c(O)c(-c2cc(O)c(O)c(O)c2)oc2cc(O)cc(O)c12 : 18

The reported EC50 of the compound CCC(C(=O)Nc1ccc2[nH]ncc2c1)c1ccccc1 (stereo not drawn) [MLS001001015] was 9.54

====

In this section we review reported EC50 values for a set of molecules.
Molecular target: Serine/threonine-protein kinase 33 (Homo sapiens, UniProt Q9BYT3)
Assay: STK33 kinase inhibitors, dose response, biochemical, luminescence, cell-free, retest (AID 2821)

# count of solved cases: 2
CN1CCN(C=NC2=NN(c3cccc(C(F)(F)F)c3)CC2)CC1 | > 120 µM
Cc1cc(C=C2C(=O)c3ccccc3C2=O)c(C)n1-c1cccc(C(=O)O)c1 | > 120 µM

Turning now to a further molecule:
Per the record, Cc1ccc(NC(=O)COC(=O)c2cc(Cl)ccc2Cl)c(Br)c1 has EC50 of > 120 µM

====

Target: Serine/threonine-protein kinase 33 (Homo sapiens, UniProt Q9BYT3)
Experiment: STK33 kinase inhibitors, dose response, biochemical, luminescence, cell-free, retest (AID 2821)
REPORTED_PROPERTY: EC50 (µM)
Give the value in µM but do not write µM after it.

COc1cc2c(ccc3cc(OC)c(OC)c(O)c32)cc1O [3,6,7-trimethoxyphenanthrene-2,5-diol] | 27.4
COc1ccc(C(=O)NNC(=O)c2ccccn2)cc1 | 21.8
COc1cc(C=Nn2c(-c3ccccc3)n[nH]c2=S)ccc1O | 7.09
Cc1ccc(C(=O)O/N=C(\N)c2ccccn2)c(Cl)c1 [MLS001206211] | 32.2

Pending molecule:
Lookup result for O=NCc1c(Nc2ccccc2)nc2ccccn2c1=O ; measured EC50: 6.22

====

Below: a set of entries, each annotated with reported pEC50.
Target: Serine/threonine-protein kinase 33 (Homo sapiens)
Assay: STK33 kinase inhibitors, dose response, biochemical, luminescence, cell-free, retest (AID 2821)
pEC50: −log10 of the molar value.

Example entries begin here.
O=C(c1ccc2c3n(nc2c1)-c1ccccc1CO3)N1CCCCC1 | < 3.92
Cc1nc[nH]c1C(=O)NN=Cc1c(Cl)cccc1Cl [MLS001182271] | < 3.92
CCn1c2ccc(C(C)N=O)cc2c2cc(C(C)N=O)ccc21 (stereo unspecified) | < 3.92
COc1ccc(CNc2nc3ccccc3s2)cc1OC [SMR000523783] | < 3.92

// molecule Oc1cc(O)cc(/C=C/c2ccc(O)c(O)c2)c1 , assay Serine/threonine-protein kinase 33 (Homo sapiens), pEC50 value: 4.89

Case CCOC(=O)Cc1nnc(NC(=O)COc2ccc(C)cc2)s1 [MLS000082525] , Serine/threonine-protein kinase 33 (Homo sapiens), pEC50 recorded as < 3.92
